From: patent US8772499B2

Reported log10(IC50) is given for each of the following molecules.
Target: human TRPV3 (Homo sapiens, UniProt Q8NET8)
Construct: expressed in transfected cells
Sequence (Q8NET8 whole entry): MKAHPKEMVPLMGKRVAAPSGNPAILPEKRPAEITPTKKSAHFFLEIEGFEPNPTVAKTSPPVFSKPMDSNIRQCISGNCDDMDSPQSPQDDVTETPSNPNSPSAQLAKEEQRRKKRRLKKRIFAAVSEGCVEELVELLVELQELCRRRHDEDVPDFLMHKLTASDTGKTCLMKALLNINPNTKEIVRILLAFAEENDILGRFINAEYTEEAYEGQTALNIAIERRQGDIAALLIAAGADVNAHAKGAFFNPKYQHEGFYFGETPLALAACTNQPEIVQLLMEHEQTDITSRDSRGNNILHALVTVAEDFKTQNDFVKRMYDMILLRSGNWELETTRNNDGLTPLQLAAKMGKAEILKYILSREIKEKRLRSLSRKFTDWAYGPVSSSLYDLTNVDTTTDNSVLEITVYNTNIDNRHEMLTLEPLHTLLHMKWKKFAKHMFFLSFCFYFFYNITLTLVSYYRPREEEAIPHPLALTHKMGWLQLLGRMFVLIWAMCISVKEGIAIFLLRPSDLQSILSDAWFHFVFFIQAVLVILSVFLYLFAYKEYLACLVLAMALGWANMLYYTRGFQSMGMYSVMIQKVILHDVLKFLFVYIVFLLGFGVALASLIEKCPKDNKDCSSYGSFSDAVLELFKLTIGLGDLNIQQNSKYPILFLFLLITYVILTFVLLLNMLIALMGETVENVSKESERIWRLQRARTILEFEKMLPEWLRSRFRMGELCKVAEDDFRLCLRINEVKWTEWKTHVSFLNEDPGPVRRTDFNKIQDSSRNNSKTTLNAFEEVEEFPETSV
Assay: In vitro antagonism of recombinant human TRPV3 activation (FLIPR Tetra calcium assay)
Assay type: cell-based
Conditions: HEK293 cells stably expressing human TRPV3; agonist 2-APB at 80 μM; actual measured value shown parenthetically; in most cases average of at least two runs; read-out: IC50
Values below are the log10 of the recorded IC50, with µM as the unit.

>  <MOLECULE>
N[C@@H]1CCC[C@@H]1[C@@H](O)C1(c2ccc(Cl)c(Cl)c2)CCC1

>  <log10(IC50)>
0.35

$$$$
>  <MOLECULE>
O[C@H](c1ccccn1)C1(c2ccc(C(F)(F)F)c(F)c2)CCC1

>  <log10(IC50)>
0.40

$$$$
>  <MOLECULE>
Cc1ccccc1C1(C(O)c2ccccn2)CCC1 (stereo not drawn)

>  <log10(IC50)>
1.24

$$$$
>  <MOLECULE>
O[C@H](c1ccccn1)C1(c2ccc(C(F)(F)F)cc2F)CCC1

>  <log10(IC50)>
0.15

$$$$

GET /values?readout=log10(IC50)&system=human TRPV3 (Homo sapiens, UniProt Q8NET8)&item= OC(c1ccccn1)C1(c2cccc(C(F)(F)F)c2)CC2(C1)OCCO2 (stereo not drawn)
0.71

Checklist item: log10(IC50) tested on human TRPV3 (Homo sapiens, UniProt Q8NET8), entry "C[C@]1(O)C[C@@](c2ccc(OC(F)(F)F)cc2)([C@@H](O)c2ccccn2)C1" , value?
0.97

human TRPV3 (Homo sapiens, UniProt Q8NET8) / log10(IC50) / OC(c1ccccn1)C1(c2cncc(C(F)(F)F)c2)CCC1 (stereo not drawn) : value?
-0.30
